Below is a list of entries, each paired with its recorded IC50 value.
Target: SARS2 protease (Severe acute respiratory syndrome coronavirus 2)
Construct: SARS2 protease was added to a final concentration of 30 nM
Assay: SARS-CoV-2 protease inhibition assay (SARS2 FRET protease assay)
Format: biochemical
Conditions: IC50 (μM), SARS2 protease 30 nM, peptide substrate 1.3 μM, 120 minutes at 37° C., compounds 20 μM to 0.075 nM
Report the value in µM with no unit label.

// below: answered molecules
molecule	target.under.test	IC50 (µM)
CC(C)C[C@H](NC(=O)O[C@H](c1ccc(Cl)cc1)C1(c2cccc(Cl)c2)CC1)C(=O)N[C@@H](C[C@@H]1CCNC1=O)C(=O)C(=O)NC1CC1 [Compound A60]	SARS2 protease (Severe acute respiratory syndrome coronavirus 2)	1.91
CCN1CCC(NC(=O)C(=O)[C@H](C[C@@H]2CCNC2=O)NC(=O)[C@H](CC(C)C)NC(=O)OC(c2ccc(F)cc2)C(CC)(CC)c2cccc(Cl)c2)CC1 (stereo partly drawn) [Compound A32]	SARS2 protease (Severe acute respiratory syndrome coronavirus 2)	10.1
CCCC[C@H](NC(=O)OC(c1ccccc1)C(F)(F)c1cccc(Cl)c1)C(=O)N[C@H](C=O)C[C@@H]1CCCNC1=O (stereo partly drawn) [Compound A114]	SARS2 protease (Severe acute respiratory syndrome coronavirus 2)	0.0003
CCCC[C@H](NC(=O)OC(c1ccccc1)C(F)(F)c1cccc(Cl)c1)C(=O)N[C@H](C=O)CC1CC(C)NC1=O (stereo partly drawn) [Compound A112]	SARS2 protease (Severe acute respiratory syndrome coronavirus 2)	0.179

IN: GET /values?readout=IC50&item= CCNC(=O)C(=O)[C@H](C[C@H]1CCNC1=O)NC(=O)[C@H](CC1CCCCC1)NC(=O)OC(c1ccccc1)C(F)(F)c1cccc(Cl)c1 (stereo partly drawn) [Compound A207]
OUT: 0.764

IN: GET /values?readout=IC50&item= CCC(CC)(c1cccc(Cl)c1)C(OC(=O)N[C@@H](CC(C)C)C(=O)N[C@H](C=O)C[C@@H]1CCNC1=O)c1ccc(F)c(F)c1 (stereo partly drawn) [Compound A18]
OUT: 0.01

----------
Molecular target: SARS2 protease (Severe acute respiratory syndrome coronavirus 2)
Construct: SARS2 protease was added to a final concentration of 30 nM
Assay: SARS-CoV-2 protease inhibition assay (SARS2 FRET protease assay)
Type: biochemical
Conditions: IC50 (μM), SARS2 protease 30 nM, peptide substrate 1.3 μM, 120 minutes at 37° C., compounds 20 μM to 0.075 nM
reported.property: IC50 (µM)
Report the value in µM with no unit label.

compound	reported.result
CC(C)C(OC(=O)N[C@@H](Cc1ccccc1)C(=O)N[C@H](C=O)C[C@@H]1CCNC1=O)C(F)(F)c1cccc(Cl)c1 (stereo partly drawn)	0.0001

IN: GET /values?readout=IC50&item= CCCC[C@H](NC(=O)OC(c1ccccc1)C(F)(F)c1cccc(F)c1)C(=O)N[C@@H](CC1CCNC1=O)C(=O)C(=O)NCC (stereo in doubt)
OUT: 0.0386

IN: GET /values?readout=IC50&item= CCC(C)C[C@H](NC(=O)OC(c1ccccc1)C(F)(F)c1cccc(Cl)c1)C(=O)N[C@H](C=O)C[C@@H]1CCNC1=O (stereo partly drawn)
OUT: 0.001

----------
Target: SARS2 protease (Severe acute respiratory syndrome coronavirus 2)
Construct: SARS2 protease was added to a final concentration of 30 nM
Test: SARS-CoV-2 protease inhibition assay (SARS2 FRET protease assay)
Format: biochemical
Conditions: IC50 (μM), SARS2 protease 30 nM, peptide substrate 1.3 μM, 120 minutes at 37° C., compounds 20 μM to 0.075 nM
Label condition met when IC50 is strictly below 0.1 µM; otherwise label condition not met.

compound	class
CCCC[C@H](NC(=O)OC(c1ccncc1)C(F)(F)c1cccc(Cl)c1)C(=O)N[C@@H](C[C@@H]1CCNC1=O)C(=O)C(=O)NC1CC1 (stereo partly drawn)	condition met
CCCC[C@H](NC(=O)OC(c1cccc(F)c1)C(F)(F)c1cccc(Cl)c1)C(=O)N[C@@H](C[C@@H]1CCNC1=O)C(=O)C(=O)NC1CC1 (stereo partly drawn)	condition not met
CCCC[C@H](NC(=O)O[C@H](c1ccccc1)C(C)(C)c1cccc(Cl)c1)C(=O)N[C@H](C=O)C[C@H]1CCNC1=O	condition not met
CCCC[C@H](NC(=O)OC(c1ccn(C)n1)C(F)(F)c1cccc(Cl)c1)C(=O)N[C@@H](C[C@@H]1CCNC1=O)C(=O)C(=O)NCC (stereo partly drawn)	condition not met
CCCC[C@H](NC(=O)OC(c1ccccc1)C(F)(F)c1cccc(Cl)c1)C(=O)N[C@@H](C[C@@H]1CCNC1=O)C(=O)C(=O)NCC (stereo partly drawn)	condition met

IN: Identify whether the compound CCCC[C@H](NC(=O)OC(c1ccccc1)C1(c2cccc(F)c2)CC1)C(=O)N[C@@H](C[C@@H]1CCNC1=O)C(=O)C(=O)NC1CC1 (stereo partly drawn) records IC50 below 0.1 µM.
OUT: condition not met

----------
Target: SARS2 protease (Severe acute respiratory syndrome coronavirus 2)
Construct: SARS2 protease was added to a final concentration of 30 nM
Assay: SARS-CoV-2 protease inhibition assay (SARS2 FRET protease assay)
Format: biochemical
Conditions: IC50 (μM), SARS2 protease 30 nM, peptide substrate 1.3 μM, 120 minutes at 37° C., compounds 20 μM to 0.075 nM
Label MET when IC50 is strictly below 0.007 µM; otherwise label NOT MET.

Solved entries:
compound	class
CCCCC[C@H](NC(=O)O[C@@H](c1ccccc1)C(F)(F)c1cccc(Cl)c1)C(=O)N[C@H](C=O)C[C@@H]1CCNC1=O	MET
CCCC[C@H](NC(=O)CC(O)(c1ccccc1)C(C)(C)c1cccc(Cl)c1)C(=O)N[C@@H](C[C@@H]1CCNC1=O)C(=O)C(=O)NCC (stereo partly drawn)	NOT MET
CCNC(=O)C(=O)[C@H](C[C@@H]1CCNC1=O)NC(=O)[C@H](Cc1ccc(Cl)c(Cl)c1)NC(=O)OC(c1ccccc1)C(C)(C)c1cccc(Cl)c1 (stereo partly drawn)	NOT MET
CCCC[C@H](NC(=O)OC(c1cccc(F)c1)C(F)(F)c1cccc(F)c1)C(=O)N[C@H](C=O)C[C@@H]1CCNC1=O (stereo partly drawn)	NOT MET
CCCC[C@H](NC(=O)O[C@@H](c1ccccc1)C(C)(C)c1cccc(Cl)c1)C(=O)N[C@H](C=O)C[C@@H]1CCNC1=O	MET
CCC[C@H](NC(=O)O[C@@H](c1ccccc1)C(F)(F)c1cccc(Cl)c1)C(=O)N[C@H](C=O)C[C@@H]1CCNC1=O	MET
CC(C)C[C@H](NC(=O)OC(c1ccccc1)C(C)(C)c1cccc(Cl)c1)C(=O)N[C@@H](C[C@@H]1CCCNC1=O)C(=O)C(=O)NC1CC1 (stereo partly drawn)	NOT MET
CCCC[C@H](NC(=O)O[C@@H](c1ccccc1)C(F)(F)c1cccc(Cl)c1)C(=O)N[C@H](C=O)C[C@@H]1CCNC1=O	MET

IN: Identify whether the compound "CCCC[C@H](NC(=O)O[C@@H](c1cccnc1)C(F)(F)c1cccc(Cl)c1)C(=O)N[C@@H](C[C@@H]1CCNC1=O)C(=O)C(=O)NC1CC1" records IC50 below 0.007 µM.
OUT: NOT MET

IN: Identify whether the compound CC(C)C[C@H](NC(=O)OC(c1ccc(Cl)cc1)C1(c2cccc(Cl)c2)CCCCC1)C(=O)N[C@@H](C[C@@H]1CCNC1=O)C(=O)C(=O)NC1CC1 (stereo partly drawn) records IC50 below 0.007 µM.
OUT: NOT MET

IN: Identify whether the compound "O=C[C@H](C[C@@H]1CCNC1=O)NC(=O)[C@H](Cc1ccccc1)NC(=O)O[C@@H](c1ccccc1)C(F)(F)c1cccc(Cl)c1" records IC50 below 0.007 µM.
OUT: MET

----------
Target: SARS2 protease (Severe acute respiratory syndrome coronavirus 2, UniProt P0DTD1)
Construct: SARS2 protease was added to a final concentration of 30 nM
Assay: SARS-CoV-2 protease inhibition assay (SARS2 FRET protease assay)
Assay type: biochemical
Conditions: IC50 (μM), SARS2 protease 30 nM, peptide substrate 1.3 μM, 120 minutes at 37° C., compounds 20 μM to 0.075 nM
reported.property: IC50 (nM)
Report the value in nM with no unit label.

IN: GET /values?readout=IC50&item= "CCCC[C@H](NC(=O)O[C@H](c1ccccc1)C(C)(C)c1cccc(F)c1)C(=O)N[C@@H](C[C@@H]1CCNC1=O)C(=O)C(=O)NCC"
OUT: 6

IN: GET /values?readout=IC50&item= CC(C)C[C@H](NC(=O)OC(c1ccccc1)C(C)(C)c1cccc(C(F)(F)F)c1)C(=O)N[C@H](C=O)C[C@@H]1CCNC1=O (stereo partly drawn)
OUT: 0.1

IN: GET /values?readout=IC50&item= "CC(C)C[C@H](NC(=O)O[C@H](c1ccccc1)C(F)(F)c1cccc(F)c1)C(=O)N[C@H](C=O)C[C@@H]1CCNC1=O"
OUT: 7.8

IN: GET /values?readout=IC50&item= CCCC[C@H](NC(=O)OC(c1ccccc1)C(C)(C)c1cccc(F)c1)C(=O)N[C@@H](C[C@@H]1CCNC1=O)C(=O)C(=O)NCC (stereo partly drawn)
OUT: 29

IN: GET /values?readout=IC50&item= "CCCC[C@H](NC(=O)O[C@H](c1cccnc1)C(F)(F)c1cccc(Cl)c1)C(=O)N[C@H](C=O)C[C@@H]1CCNC1=O"
OUT: 0.08

IN: GET /values?readout=IC50&item= "CCCC[C@H](NC(=O)O[C@@H](c1cccnc1)C(F)(F)c1cccc(Cl)c1)C(=O)N[C@H](C=O)C[C@@H]1CCNC1=O"
OUT: 9

Reference source for all entries: patent US20240398757A1
